For each record, write down the corresponding Dmax.
Target: PDE4B (Homo sapiens)
Construct: endogenous in cells; host or cells: A549
Sequence (Q07343 whole entry): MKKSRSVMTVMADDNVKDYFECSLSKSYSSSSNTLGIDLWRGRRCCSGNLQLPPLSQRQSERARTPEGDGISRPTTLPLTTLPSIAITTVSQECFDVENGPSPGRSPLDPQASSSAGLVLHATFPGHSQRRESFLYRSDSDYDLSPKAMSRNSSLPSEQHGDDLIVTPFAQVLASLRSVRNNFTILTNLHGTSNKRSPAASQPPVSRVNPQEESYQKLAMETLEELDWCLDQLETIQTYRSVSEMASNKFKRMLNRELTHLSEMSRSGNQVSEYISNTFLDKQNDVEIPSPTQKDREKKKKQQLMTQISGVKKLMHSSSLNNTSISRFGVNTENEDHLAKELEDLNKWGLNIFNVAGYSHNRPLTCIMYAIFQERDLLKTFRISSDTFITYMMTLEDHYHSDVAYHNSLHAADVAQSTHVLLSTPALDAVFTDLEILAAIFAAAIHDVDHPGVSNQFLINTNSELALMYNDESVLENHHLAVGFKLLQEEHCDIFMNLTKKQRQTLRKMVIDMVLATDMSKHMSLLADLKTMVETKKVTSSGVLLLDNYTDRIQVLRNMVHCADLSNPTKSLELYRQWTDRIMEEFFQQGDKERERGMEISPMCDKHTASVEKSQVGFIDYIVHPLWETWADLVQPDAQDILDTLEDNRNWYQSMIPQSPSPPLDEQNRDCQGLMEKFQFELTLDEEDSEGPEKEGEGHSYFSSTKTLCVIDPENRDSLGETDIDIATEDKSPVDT
Experiment: Protein degradation assay, western blot, PDE4B in A549 cells
Type: cell-based
Details: 24 h treatment, 'as high as about' = upper value for the group, read-out: PDE4B degradation relative to DMSO

Reported Dmax ( Cc1ncsc1-c1ccc(CNC(=O)[C@@H]2C[C@@H](O)CN2C(=O)[C@@H](NC(=O)CCCCCCCCOc2cc(C(=O)Nc3c(Cl)cncc3Cl)ccc2OC(F)F)C(C)(C)C)cc1 [Compound B20] ) = ≤ 70%

Reported Dmax ( O=C1CCC(N2Cc3cc(C4CCN(CCOc5cc(C(=O)Nc6c(Cl)cncc6Cl)ccc5OC(F)F)CC4)c(F)cc3C2=O)C(=O)N1 (centres unmarked) [Compound B15] ) = ≤ 70%

Reported Dmax ( O=C1CCC(N2Cc3c(cc(F)cc3C3CCN(CCCCCCCOc4ccc(C(=O)Nc5c(Cl)cncc5Cl)cc4OCC4CC4)CC3)C2=O)C(=O)N1 (centres unmarked) [Compound B10] ) = ≤ 70%

Reported Dmax ( CCOc1cc([C@@H](CS(C)(=O)=O)N2C(=O)c3cccc(NC(=O)CCCCCCCCN4CCC(c5cc(F)cc6c5CN(C5CCC(=O)NC5=O)C6=O)CC4)c3C2=O)ccc1OC (some centres unmarked) [Compound A13] ) = ≤ 70%

Reported Dmax ( CCOc1cc([C@@H](CS(C)(=O)=O)N2C(=O)c3cccc(NC(=O)CCCCCCCCN4CCC(C#Cc5cc6c(cc5F)C(=O)N(C5CCC(=O)NC5=O)C6)CC4)c3C2=O)ccc1OC (some centres unmarked) [Compound A20] ) = ≤ 70%

Reported Dmax ( CCOc1cc([C@@H](CS(C)(=O)=O)N2C(=O)c3cccc(NC(=O)CCOCCOCCNc4cccc5c4C(=O)N(C4CCC(=O)NC4=O)C5=O)c3C2=O)ccc1OC (some centres unmarked) [Compound A9] ) = ≤ 70%

Reported Dmax ( O=C1CCC(N2C(=O)c3cccc(NCCCCCCCOc4cc(C(=O)Nc5c(Cl)cncc5Cl)ccc4OC(F)F)c3C2=O)C(=O)N1 (centres unmarked) [Compound B6] ) = ≤ 70%

Reported Dmax ( O=C1CCC(N2Cc3c(NCCCOCCOCCOCCOc4ccc(C(=O)Nc5c(Cl)cncc5Cl)cc4OCC4CC4)cccc3C2=O)C(=O)N1 (centres unmarked) [Compound B9] ) = ≤ 70%
